Reported inhibition at 10 µM by item:
- Measured on: HDAC6 enzyme (Homo sapiens)
- Construct: prepared by transducing full length HDAC6 gene into Sf-9 insect cells; GST; purchased SignalChem; host or cells: Sf-9 insect cells
- Sequence (Q9UBN7 whole entry): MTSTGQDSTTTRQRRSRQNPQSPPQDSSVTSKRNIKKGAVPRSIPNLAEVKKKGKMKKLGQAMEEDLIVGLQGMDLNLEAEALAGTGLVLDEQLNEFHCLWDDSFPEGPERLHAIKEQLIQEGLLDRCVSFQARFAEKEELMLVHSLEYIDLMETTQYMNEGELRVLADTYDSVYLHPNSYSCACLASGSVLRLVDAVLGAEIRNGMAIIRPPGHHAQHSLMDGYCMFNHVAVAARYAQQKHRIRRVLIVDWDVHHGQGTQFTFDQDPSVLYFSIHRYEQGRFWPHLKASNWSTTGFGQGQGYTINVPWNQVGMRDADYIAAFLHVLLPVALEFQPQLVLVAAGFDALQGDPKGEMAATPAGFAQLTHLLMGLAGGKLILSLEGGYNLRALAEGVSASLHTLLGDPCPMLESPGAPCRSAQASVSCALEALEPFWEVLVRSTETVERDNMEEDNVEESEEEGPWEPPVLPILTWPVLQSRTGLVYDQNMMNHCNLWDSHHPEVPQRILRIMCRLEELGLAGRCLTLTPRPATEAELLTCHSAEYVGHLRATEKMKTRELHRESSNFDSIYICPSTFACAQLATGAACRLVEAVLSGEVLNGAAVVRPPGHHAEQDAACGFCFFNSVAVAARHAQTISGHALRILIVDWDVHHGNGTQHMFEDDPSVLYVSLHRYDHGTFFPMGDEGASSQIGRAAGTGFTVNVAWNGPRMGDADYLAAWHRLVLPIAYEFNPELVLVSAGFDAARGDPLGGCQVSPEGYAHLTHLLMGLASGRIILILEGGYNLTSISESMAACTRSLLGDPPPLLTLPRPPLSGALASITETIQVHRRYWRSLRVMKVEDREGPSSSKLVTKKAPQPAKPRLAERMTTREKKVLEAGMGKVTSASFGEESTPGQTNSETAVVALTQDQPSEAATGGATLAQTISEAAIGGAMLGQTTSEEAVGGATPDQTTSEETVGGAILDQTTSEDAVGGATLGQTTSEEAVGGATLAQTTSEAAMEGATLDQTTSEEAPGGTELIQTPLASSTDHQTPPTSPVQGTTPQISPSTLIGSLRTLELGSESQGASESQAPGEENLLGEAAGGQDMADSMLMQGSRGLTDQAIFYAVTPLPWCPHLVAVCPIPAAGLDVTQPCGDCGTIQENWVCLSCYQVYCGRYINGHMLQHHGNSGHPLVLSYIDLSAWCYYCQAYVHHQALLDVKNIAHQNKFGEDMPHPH
- Assay protocol: HDAC6 enzyme inhibitory assay (HDAC-Glo I/II Assay kit, luminescence)
- Assay type: biochemical
- Protocol conditions: 10 μM test compound; wells without enzyme = 100% inhibition; read-out: HDAC6 inhibitory rate (%) (10 μM)
Please state the figure in %; there is no need to write the unit.

Recorded inhibition at 10 µM, per entry:
Compound	Numeric result
CCN(Cc1ccccc1)N1Cc2ccc(-c3nnc(C(F)F)o3)cc2C1=O	95
O=C1c2cc(-c3nnc(C(F)F)o3)ccc2CN1NC1CCCCC1 [Example 29c]	95
CN1C(=O)c2cc(-c3nnc(C(F)F)o3)ccc2CC1(C)c1ccc(F)cc1 (stereo not shown) [Example 13b]	99
O=C1NN(CC(F)(F)F)Cc2ccc(-c3nnc(C(F)F)o3)cc21 [Example 15b]	88

Task item: Record request: inhibition at 10 µM value, item FC(F)c1nnc(-c2cccc(-c3nccn3Cc3ccccc3)c2)o1 [Example 70a]
Reply: 98

Task item: Record request: inhibition at 10 µM value, item COc1ccc(C2(C)Oc3ccc(-c4nnc(C(F)F)o4)cc3C(=O)N2C)cc1 (stereo not shown) [Example 18b]
Reply: 99

Task item: Record request: inhibition at 10 µM value, item CCOC(=O)CCCN(C)N1Cc2ccc(-c3nnc(C(F)F)o3)cc2C1=O [Example 50c]
Reply: 98

Task item: Record request: inhibition at 10 µM value, item CN(Cc1ccccc1Oc1cnccn1)N1Cc2ccc(-c3nnc(C(F)F)o3)cc2C1=O [Example 59c]
Reply: 101

---

- Measured on: HDAC6 enzyme (Homo sapiens)
- Construct: prepared by transducing full length HDAC6 gene into Sf-9 insect cells; GST; purchased SignalChem; host or cells: Sf-9 insect cells
- Assay protocol: HDAC6 enzyme inhibitory assay (HDAC-Glo I/II Assay kit, luminescence)
- Assay type: biochemical
- Protocol conditions: 10 μM test compound; wells without enzyme = 100% inhibition; read-out: HDAC6 inhibitory rate (%) (10 μM)
Reported inhibition at 10 µM by item:
Please state the figure in %; there is no need to write the unit.

Recorded inhibition at 10 µM, per entry:
Compound	Numeric result
Cc1noc(Cn2ccnc2-c2cc(F)cc(-c3nnc(C(F)F)o3)c2)n1 [Example 56a]	99
Fc1cc(-c2nnc(C(F)F)o2)cc(-c2nccn2Cc2cnccn2)c1 [Example 43a]	98
Fc1cc(-c2nnc(C(F)F)o2)cc(-c2ncccc2OCc2ccccc2)c1 [Example 5a]	98
O=C1COC[C@@H](Cc2ccccc2)N1c1cc(-c2nnc(C(F)F)o2)ccn1 [Example 19a]	99
Fc1cc(-c2nnc(C(F)F)o2)cc(-c2nccn2CC2CCOCC2)c1 [Example 30a]	98

Now for a further compound.
Task item: Record request: inhibition at 10 µM value, item Cn1ccc(OCc2ccccc2)c(-c2cc(F)cc(-c3nnc(C(F)F)o3)c2)c1=O [Example 35a]
Reply: 98

---

- Measured on: HDAC6 enzyme (Homo sapiens)
- Construct: prepared by transducing full length HDAC6 gene into Sf-9 insect cells; GST; purchased SignalChem; host or cells: Sf-9 insect cells
- Assay protocol: HDAC6 enzyme inhibitory assay (HDAC-Glo I/II Assay kit, luminescence)
- Type: biochemical
- Protocol conditions: 10 μM test compound; wells without enzyme = 100% inhibition; read-out: HDAC6 inhibitory rate (%) (10 μM)
Measured endpoint: inhibition at 10 µM (%)
Please state the figure in %; there is no need to write the unit.

Recorded inhibition at 10 µM, per entry:
Compound	Numeric result
O=C(OC1CCOCC1)N(Cc1ccc(F)cc1)N1Cc2ccc(-c3nnc(C(F)F)o3)cc2C1=O [Example 23c]	101
Cc1nn(C)cc1Cn1ccnc1-c1cc(F)cc(-c2nnc(C(F)F)o2)c1 [Example 63a]	97
Fc1cc(-c2nnc(C(F)F)o2)cc(-c2nccn2Cc2ccc(F)c(F)c2)c1 [Example 45a]	100

Now for a further compound.
Task item: Record request: inhibition at 10 µM value, item O=C(CC(F)(F)F)N(Cc1ccc(F)cc1)N1Cc2ccc(-c3nnc(C(F)F)o3)cc2C1=O [Example 14c]
Reply: 100
